Assay: yeast display, Sf9 membrane polyspecificity reagent, FACS + sequencing; frameworks hold sequencing errors
endpoint.name: polyreactivity (PSR sort gate)

| sequence.input | endpoint.name | reported |
| --- | --- | --- |
| QEQLQESGGGLVQACGSLRLSCAASGSISGSSTMGWYRQAPGKERELVASIAVGANTNYADSAKGRFTISRDNAKTTVYLQMNSLKPEDSAVYYCAADYWFGYGTYEYWGQGTQVTVSS | polyreactivity (PSR sort gate) | high polyreactivity |
| QVQLVESGGGLVQAGGSLRLSCAASGSTFSDYAMGWYRPEPGQERELVATITSTGDTNYADSVKGRFTISRDNAKNTVYLQMNSLKPEDTAVYYCAAQHKKYGKRGLWNNFGYWGQGTQVSVSS | polyreactivity (PSR sort gate) | low polyreactivity |
| QVQLVESGGGLVQAGGSLRLSCAASGITFKYYTMGWYRQAPGKERELVAAISRGGSTNYADSVKGRFTISRDNAKNTVYLQMNSLKPEDTAVYYCAVDVPEFWWYRVIYDGYYWGQGTQVTVSS | polyreactivity (PSR sort gate) | high polyreactivity |
| QVQLVESGGGLVQAGGSHRLSCAASGIIIEGNVMGWSRQSPGKQSELVAAITSDTSTNYGDSVKGRFTISRDNATNTVYLQMNSLKPEDTGVYYCNAVIGTDYFYSGTAEFYYWGQGTQVTVSS | polyreactivity (PSR sort gate) | low polyreactivity |
| QVQLVESGGGLVQAGGSLRLSFAASGSIFASNAMGWYRQAPGKERELVAAISKRGGSTYYVDSVKGRFTISRDNAKNTVYFQMNSLKPEDTAVYYCNTYIRQDAPGQYDYWGQGTQVTVSS | polyreactivity (PSR sort gate) | high polyreactivity |
| QVQLVESGGGLVQAGGSLRLSCAASGLIFVDNAMGWYRQAPGKERELVAAIESGGSTNYADSVKGRFTISRDNAKNTVYLHMNSLKPEDTAVYYCAADWIYAPWYYQESVEYYYWGQGTQVTVSS | polyreactivity (PSR sort gate) | low polyreactivity |
| QVQLVESGGGLVQAGGSLRLSCAATGSTFLRNAIGWYRQAPGTERELVATITNGGSTYYADSVKGRFTISRDNAKNTVYLQMNSLKPEDTAVYYCATLSSYWSWLRYGYGYWGQGTQVTVSS | polyreactivity (PSR sort gate) | low polyreactivity |
| QVQLVESGGGLVQAGGSLRLSCAASGRIFYIYTMGWYRQAPGKEREFVAGINWNGGSTYYADSVKGRFTISRDNAKNTVYLQMNSLKPEDTAVYYCNADQYWDRYYYWGQGTQVTVSS | polyreactivity (PSR sort gate) | low polyreactivity |

Q) What polyreactivity (PSR sort gate) value was documented for this sequence, QVQLVESGGGLVQAGGSLRLSCAASGRTFIANAMGWYRQAPGKERELVAVITLNGGSTYYADSVKGRFTISRDNAKSTVYLQMISLKPEDTAVYYCAAGRYYNLRATHGYWGQGTQVTVSS ?
A) low polyreactivity

Q) What polyreactivity (PSR sort gate) value was documented for this sequence, QVQLVESGGGLVQAGGSLRLSCAASGSIAGNAMGWYRQAPGKERELVAAITFRGSGTYYADSVKGRFTISRDNAKNTVYLQMNSLKPEDTAVDYCNAYRRGLSVYGYWGQGTQVTVSS ?
A) high polyreactivity

Q) What polyreactivity (PSR sort gate) value was documented for this sequence, QVQLVESGGGIVQAGGSLRLSCAASGFTFTRYAMGSYRQAPGKERELVATITKRGGSTYYADSVKGRFTISRDNAKNTVYLKMNSLKPEDTAVYYCAADGASRALYDYWGQGTQVTVSS ?
A) high polyreactivity
